# study-system: T1, ZH 10 as periplasmic ABD fusion AQHDEALE-[ZH 10]-VDYV-[ABD]-YVPG (Streptococcus strain G148, UniProt P19909 254-299, limits assumed)
# T1 construct: domain: GA3
# assay-summary: SPR (Biacore 2000) screening; periplasmic Z-ABD captured on anti-ABD antibody, 200 nM boxA(disulfide); 1:1 model
property-name: Kd

Q: Using the record for boxA(disulfide), disulfide linked form of A-box domain of HMGB1 (other, disulfide C23-C45, also called b-boxA(disulfide)) MGKGDPKKPRGKMSSYAFFVQTCREEHKKKHPDASVNFSEFSKKCSERWKTMSAKEKGKFEDMAKADKARYEREMKTYIPPKGETKKKF , report its Kd.
Ans: ~47 nM

These entries and their values trace back to patent US20220389066A1.
